- Test system: JNK2
- Construct: gene MAPK9
- TEST PARAMETERS: concentration: 1 μM, replicates: in singlicate; n = 1;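 further: KINOMEscan kinase panel screen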
%Inh by entry:
Reply numerically in %, unit not repeated.

Before answering, review these 3 worked examples.
SMILES TEXT: COc1cc(Nc2nccc(-c3c(-c4cccc(NC(=O)c5c(F)cccc5F)c4)nn4ncccc34)n2)cc(OC)c1OC
MEASUREMENT KIND: %Inh
REPORTED: 71
//
SMILES TEXT: COC(=O)Nc1nc2ccc(Oc3ccc(NC(=O)Nc4cc(C(F)(F)F)ccc4F)cc3)cc2n1C.Cl
MEASUREMENT KIND: %Inh
REPORTED: 37
//
SMILES TEXT: O=c1[nH]cc(-c2ccc(N3CCOCC3)cc2)c2sc(-c3cn[nH]c3)cc12
MEASUREMENT KIND: %Inh
REPORTED: 14

# get_value(readout='%Inh', item= FC(F)(F)c1ccc(/C=C/c2cncnc2Nc2ccc3[nH]c(Cc4ccccc4)nc3c2)cc1 )
0

Please answer likewise for COc1ccc(Nc2nccc(NCCNC(=O)c3cc4ccccc4s3)n2)cc1
27

Please answer likewise for CCCCc1nn2ncccc2c1-c1ccnc(Nc2ccc(N3CCN(C)CC3)cc2)n1
98.9

Please answer likewise for COc1cccc(-c2ccc3c(NC(=O)C4CC4)n[nH]c3n2)c1
14

Please answer likewise for COc1ccc(-c2coc3ccc(-c4nnc(SCc5ccc(OC)c(C(F)(F)F)c5)o4)cc23)cc1
0

====

- Tested on: MST1R
- TEST PARAMETERS: concentration: 1 μM, replicates: in singlicate; n = 1
Could you please mark rule met for values of %Inh below 30% and rule not met for values at or above it?

Reference set (5 entries):
MOLECULE: CC(C)c1nc(-c2cccc(NS(=O)(=O)c3c(F)cccc3F)c2F)c(-c2ccnc(Nc3ccc(N4CCOCC4)nc3)n2)s1
SYSTEM TESTED: MST1R
GROUP LABEL: rule not met

MOLECULE: Nc1n[nH]c2cnc(-c3ccccc3)cc12
SYSTEM TESTED: MST1R
GROUP LABEL: rule not met

MOLECULE: c1ccc(-c2cnc3nccnn23)cc1
SYSTEM TESTED: MST1R
GROUP LABEL: rule not met

MOLECULE: CCn1c(-c2nonc2N)nc2c(C#CC(C)(C)O)ncc(OCCCCN)c21.O=C(O)C(F)(F)F.O=C(O)C(F)(F)F
SYSTEM TESTED: MST1R
GROUP LABEL: rule not met

MOLECULE: O=C(Nc1n[nH]c2cc(-c3ccoc3)ccc12)C1CC1
SYSTEM TESTED: MST1R
GROUP LABEL: rule met

Is it true that %Inh reported for CN(C)Cc1ccc(-c2ccc3c(Nc4ccc(Oc5ccccn5)cc4)ccnc3c2)o1 is less than 30%?
rule not met

Please answer likewise for Cl.c1ccc(-c2ccc3c(Nc4ccc5[nH]ccc5c4)ccnc3c2)nc1
rule not met

====

- System: CDKL1
- TEST PARAMETERS: concentration: 1 μM, replicates: in singlicate; n = 1
MEASUREMENT KIND: %Inh (%)
Reply numerically in %, unit not repeated.

MOLECULE: c1ccc(Oc2ccc(Nc3ccnc4cc(-c5ccc(CNCCN6CCOCC6)o5)ccc34)cc2)nc1
UNIT TAG: %
%Inh: 2

Entry COc1cccc(NC(=O)NC2CCN(c3ccnc(Nc4cc(OC)c(OC)c(OC)c4)n3)C2)c1 (centres unmarked) , system CDKL1: what %Inh was measured?
0

Please answer likewise for Nc1ncc(-c2cccnc2)c2scc(-c3ccc4c(c3)CCN4C(=O)Cc3ccccc3)c12
26

Please answer likewise for Oc1cc(Nc2ccnc3cc(I)ccc23)ccc1F
0

Please answer likewise for CC(=O)Nc1nc2cnc(Nc3cc(NC(=O)c4cccc(C5(C#N)CC5)c4Cl)ccc3C)nc2s1
5

Please answer likewise for c1ccc(-c2n[nH]cc2Nc2ccnc3ccccc23)nc1
3

Please answer likewise for NCCCC(NC(=O)c1cc(Br)c(-c2ccnc3[nH]ccc23)s1)c1ccccc1.O=C(O)C(F)(F)F.O=C(O)C(F)(F)F (centres unmarked)
0

Please answer likewise for Cl.c1ccc(-c2ccc3c(Nc4ccc5[nH]ccc5c4)ccnc3c2)nc1
0

Please answer likewise for O=C(Nc1n[nH]c2cc(-c3ccoc3)ccc12)C1CC1
18

Please answer likewise for Cc1occc1-c1ncc(OC[C@@H](N)Cc2c[nH]c3ccccc23)cc1-c1ccc2[nH]nc(C)c2c1.O=C(O)C(F)(F)F
11

Please answer likewise for Cc1ccc(S(=O)(=O)Nc2ccc(Nc3nccc(Nc4cccc5[nH]ncc45)n3)cc2)cc1
2

====

- Test system: IRAK4
- TEST PARAMETERS: concentration: 1 μM, replicates: in singlicate; n = 1
%Inh by entry:
Reply numerically in %, unit not repeated.

Before answering, review these 6 worked examples.
MOLECULE: Cn1cc(-c2[nH]c3cc(NC(=O)[C@H](N)C4CCCCC4)cc4c3c2C=NNC4=O)cn1
SYSTEM TESTED: IRAK4
%Inh / %: 93.3
//
MOLECULE: Cc1ccc(C(=O)Nc2ccc(Nc3ccnc4cc(-c5nccs5)ccc34)cc2O)cc1.Cl
SYSTEM TESTED: IRAK4
%Inh / %: 5
//
MOLECULE: CN1CCN(CCCNc2nccc(-c3c(-c4ccc(F)cc4)nn4cc(C(F)(F)F)ccc34)n2)CC1
SYSTEM TESTED: IRAK4
%Inh / %: 7
//
MOLECULE: O=C(Nc1cccc(-c2nn3ccccc3c2-c2ccnc(Nc3cccc(F)c3)n2)c1)c1c(F)ccc(F)c1Cl
SYSTEM TESTED: IRAK4
%Inh / %: 84
//
MOLECULE: COC(=O)Nc1nc2cc(Oc3ccc(NC(=O)Nc4cc(C(F)(F)F)ccc4F)cn3)ccc2[nH]1.Cl.Cl
SYSTEM TESTED: IRAK4
%Inh / %: 3
//
MOLECULE: FC(F)(F)c1ccc(/C=C/c2cncnc2Nc2ccc3[nH]c(Cc4ccccc4)nc3c2)cc1
SYSTEM TESTED: IRAK4
%Inh / %: 0

# get_value(readout='%Inh', item= CCS(=O)(=O)c1ccc(OC)c(Nc2nccc(-c3c(-c4cccc(NC(=O)c5c(F)cccc5F)c4)nn4ncccc34)n2)c1 )
29

====

%Inh by entry:
- System: MYO3A
- TEST PARAMETERS: concentration: 1 μM, replicates: in singlicate; n = 1

Before answering, review these 6 worked examples.
MOLECULE: Nc1ncc(-c2ccc3nccc(-c4ccncc4)c3c2)cc1S(=O)(=O)N1CCOCC1
%Inh: 0%

MOLECULE: Cl.Cl.NCC(C(=O)Nc1cc(Br)c(-c2ccnc3[nH]ccc23)s1)c1ccccc1 (centres unmarked)
%Inh: 0%

MOLECULE: Nc1ncnc2c1nc(-c1ccccc1)n2-c1ccccc1
%Inh: 13%

MOLECULE: Cc1cccc(Nc2nc(N[C@H]3CCNC3)ncc2C(N)=O)c1.Cl
%Inh: 2%

MOLECULE: Cl.NC(=O)c1cccc(Nc2nccc(Nc3ccc(Oc4c(Cl)cccc4Cl)c(Cl)c3)n2)c1
%Inh: 0%

MOLECULE: CCn1c(-c2nonc2N)nc2c(C#CC(C)(C)O)ncc(OCCCCN)c21.O=C(O)C(F)(F)F.O=C(O)C(F)(F)F
%Inh: 12%

# get_value(readout='%Inh', item= O=C(Nc1cccc(-c2nn3ccccc3c2-c2ccnc(Nc3cccc(F)c3)n2)c1)c1c(F)ccc(F)c1Cl )
0%

Please answer likewise for O=c1[nH]cc(-c2ccc(N3CCOCC3)cc2)c2sc(-c3cn[nH]c3)cc12
53%

====

- Tested on: RIPK1
- TEST PARAMETERS: concentration: 1 μM, replicates: in singlicate; n = 1
MEASUREMENT KIND: %Inh (%)
Reply numerically in %, unit not repeated.

Before answering, review these 5 worked examples.
SMILES TEXT: Cc1cccc(Nc2nc(N[C@H]3CCNC3)ncc2C(N)=O)c1.Cl
UNIT TAG: %
%Inh: 0
//
SMILES TEXT: Cc1ccc(C(=O)N2CC[C@@H](O)C2)cc1-n1c(C)cc(OCc2ccc(F)cc2F)c(Br)c1=O
UNIT TAG: %
%Inh: 0
//
SMILES TEXT: CC(=O)N1CCN(c2ccc(Nc3nccc(-c4sc(C(C)C)nc4-c4cccc(NS(=O)(=O)c5cccc(Cl)c5)c4)n3)cn2)CC1
UNIT TAG: %
%Inh: 0
//
SMILES TEXT: CSc1cccc2c(-c3ccncn3)c(-c3ccc(F)cc3)nn12
UNIT TAG: %
%Inh: 0
//
SMILES TEXT: O=C(Nc1n[nH]c2cc(-c3ccoc3)ccc12)C1CC1
UNIT TAG: %
%Inh: 28

For the next question, use this molecule.
# get_value(readout='%Inh', item= CN(C)Cc1ccc(-c2ccc3c(Nc4ccc(Oc5ccccn5)cc4)ccnc3c2)o1 )
0

====

- Test system: SRPK1
- TEST PARAMETERS: concentration: 1 μM, replicates: in singlicate; n = 1
Could you please mark satisfied for values of %Inh below 30% and not satisfied for values at or above it?

COMPOUND: COCCOCCOc1cc2ncc3c4ccc(C#N)cc4[nH]c3c2cc1OC
GROUP LABEL: not satisfied

COMPOUND: CCn1c(-c2nonc2N)nc2c(C#CC(C)(C)O)nc(OC[C@H](N)c3ccccc3)cc21 [GSK943949]
GROUP LABEL: not satisfied

COMPOUND: COc1ccc(CNC(=O)NC2CCN(c3ccnc(Nc4ccc(F)cc4)n3)CC2)cc1 [GSK1379788]
GROUP LABEL: satisfied

COMPOUND: Cc1cccc(NC(=O)Nc2ccc(Oc3ncnc4ccn(C)c34)cc2)c1
GROUP LABEL: satisfied

COMPOUND: COc1cccc(-c2ccc3c(NC(=O)C4CC4)n[nH]c3n2)c1 [SB-710903]
GROUP LABEL: satisfied

COMPOUND: O=C(Nc1n[nH]c2nc(-c3ccc(O)cc3)ccc12)C1CC1 [SB-710363]
GROUP LABEL: satisfied

COMPOUND: CN1CCN(Cc2cccc(-c3ccc4c(Nc5ccc(Oc6ccccc6)cc5)ccnc4c3)c2)CC1 [GW578342]
GROUP LABEL: not satisfied

COMPOUND: O=C(Nc1ccccc1F)NC1CCN(c2ccnc(Nc3ccc(F)cc3)n2)CC1 [GSK1379800]
GROUP LABEL: satisfied

Proceed to the following item.
Is it true that %Inh reported for Cl.c1ccc(-c2ccc3c(Nc4ccc5[nH]ncc5c4)ccnc3c2)nc1 [GW440137] is less than 30%?
not satisfied

The values you see were collected from paper PMC5540273.
